Assign log10 Kb to each entry below.
- targetSystem: cloned human μ opioid receptor (MOR) (Homo sapiens, UniProt P35372)
- Sequence (P35372 whole entry): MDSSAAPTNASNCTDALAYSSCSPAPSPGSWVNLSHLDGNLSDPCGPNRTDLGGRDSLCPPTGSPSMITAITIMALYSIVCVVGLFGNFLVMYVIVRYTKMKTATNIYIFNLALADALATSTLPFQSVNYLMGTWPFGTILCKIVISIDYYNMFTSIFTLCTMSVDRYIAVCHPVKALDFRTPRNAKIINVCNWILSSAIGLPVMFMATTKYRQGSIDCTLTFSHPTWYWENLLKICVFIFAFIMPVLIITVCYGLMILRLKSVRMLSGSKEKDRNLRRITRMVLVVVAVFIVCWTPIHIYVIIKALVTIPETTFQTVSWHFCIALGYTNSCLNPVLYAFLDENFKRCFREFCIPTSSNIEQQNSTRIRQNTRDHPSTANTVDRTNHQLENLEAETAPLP
- experimentalProtocol: Inhibition of DAMGO-stimulated [35S]GTPγS binding
- Format: biochemical
# values: log10(Kb), units nM

Lookup: If you can, please state the reported log10 Kb value of CC(C)[C@@H](CN1CCC(c2cccnc2)CC1)NC(=O)[C@H]1Cc2ccc(O)cc2CN1 .
Found: 1.66

Lookup: Find the recorded log10 Kb belonging to CC(C)[C@@H](CN1CCC(c2ccccn2)CC1)NC(=O)[C@H]1Cc2ccc(O)cc2CN1 and report it.
Found: 1.16

Lookup: What does the data say about its log10 Kb? Entry: CC(C)[C@@H](CN1CCC(C)(c2cccnc2)CC1)NC(=O)[C@H]1Cc2ccc(O)cc2CN1
Found: 1.69

Lookup: Recorded log10 Kb for CC(C)[C@@H](CN1CCC(c2ccncc2)CC1)NC(=O)[C@H]1Cc2ccc(O)cc2CN1 , please?
Found: 1.76

Lookup: // lookup log10 Kb for CC(C)[C@@H](CN1CCC(C)(c2ccncc2)CC1)NC(=O)[C@H]1Cc2ccc(O)cc2CN1
Found: 2.19

* * *

- targetSystem: cloned human δ opioid receptor (DOR) (Homo sapiens, UniProt P41143)
- Sequence (P41143 whole entry): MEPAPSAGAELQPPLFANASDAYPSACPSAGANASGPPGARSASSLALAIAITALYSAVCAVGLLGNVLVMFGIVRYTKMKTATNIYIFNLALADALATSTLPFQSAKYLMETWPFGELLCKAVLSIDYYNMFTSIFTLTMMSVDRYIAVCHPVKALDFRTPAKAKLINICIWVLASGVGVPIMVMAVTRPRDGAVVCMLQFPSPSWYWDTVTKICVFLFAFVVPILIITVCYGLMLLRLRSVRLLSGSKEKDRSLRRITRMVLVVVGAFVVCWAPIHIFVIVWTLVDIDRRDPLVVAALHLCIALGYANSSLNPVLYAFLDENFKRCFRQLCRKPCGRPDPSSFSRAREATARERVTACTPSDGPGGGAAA
- experimentalProtocol: Inhibition of DPDPE-stimulated [35S]GTPγS binding
- Type: biochemical
assayReadout: Kb

Lookup: GET /values?readout=Kb&system=cloned human δ opioid receptor (DOR) (Homo sapiens, UniProt P41143)&item= CC(C)[C@@H](CN1CCC(c2ccccn2)CC1)NC(=O)[C@H]1Cc2ccc(O)cc2CN1 [Compound 2]
Found: 590 nM

Lookup: Form field - read-out: Kb; system: cloned human δ opioid receptor (DOR) (Homo sapiens, UniProt P41143); submitted item: CC(C)[C@@H](CN1CCC(C)(c2ccncc2)CC1)NC(=O)[C@H]1Cc2ccc(O)cc2CN1 [Compound 4b]
Found: 2510 nM

Lookup: # query: Kb | item CC(C)[C@@H](CN1CCC(C)(c2cccnc2)CC1)NC(=O)[C@H]1Cc2ccc(O)cc2CN1 [Compound 3b] | system: cloned human δ opioid receptor (DOR) (Homo sapiens, UniProt P41143)
Found: > 3000 nM

Lookup: Kindly state the measured Kb obtained for CC(C)[C@@H](CN1CCC(c2ccncc2)CC1)NC(=O)[C@H]1Cc2ccc(O)cc2CN1 [Compound 4a] with cloned human δ opioid receptor (DOR) (Homo sapiens, UniProt P41143).
Found: 690 nM

Lookup: For cloned human δ opioid receptor (DOR) (Homo sapiens, UniProt P41143), provide Kb of CC(C)[C@@H](CN1CCC(c2cccnc2)CC1)NC(=O)[C@H]1Cc2ccc(O)cc2CN1 [Compound 3a] please.
Found: 1140 nM

* * *

- targetSystem: cloned human κ opioid receptor (KOR) (Homo sapiens, UniProt P41145)
- Sequence (P41145 whole entry): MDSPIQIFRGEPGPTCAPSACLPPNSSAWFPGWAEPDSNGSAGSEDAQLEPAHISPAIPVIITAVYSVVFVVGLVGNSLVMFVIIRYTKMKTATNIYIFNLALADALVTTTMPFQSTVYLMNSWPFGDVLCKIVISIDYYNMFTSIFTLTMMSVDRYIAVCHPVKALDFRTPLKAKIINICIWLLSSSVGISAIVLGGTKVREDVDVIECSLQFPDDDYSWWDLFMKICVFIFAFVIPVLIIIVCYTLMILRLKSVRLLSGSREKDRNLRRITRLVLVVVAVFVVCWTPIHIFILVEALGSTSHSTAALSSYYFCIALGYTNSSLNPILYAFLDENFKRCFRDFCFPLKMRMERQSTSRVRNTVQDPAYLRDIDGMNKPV
- experimentalProtocol: Inhibition of U69,593-stimulated [35S]GTPγS binding
- Assay type: biochemical
For each entry below, report its Kb value.
# unit: nM | format: bare number

Lookup: Entry CC(C)[C@@H](CN1CCC(c2cccnc2)CC1)NC(=O)[C@H]1Cc2ccc(O)cc2CN1 [Compound 3a] , system cloned human κ opioid receptor (KOR) (Homo sapiens, UniProt P41145): what Kb was measured?
Found: 0.51

Lookup: Record lookup: for cloned human κ opioid receptor (KOR) (Homo sapiens, UniProt P41145), what Kb belongs to CC(C)[C@@H](CN1CCC(c2ccccn2)CC1)NC(=O)[C@H]1Cc2ccc(O)cc2CN1 [Compound 2] ?
Found: 0.43

Lookup: Can you look up Kb on cloned human κ opioid receptor (KOR) (Homo sapiens, UniProt P41145) for CC(C)[C@@H](CN1CCC(C)(c2ccncc2)CC1)NC(=O)[C@H]1Cc2ccc(O)cc2CN1 [Compound 4b] ?
Found: 1.75

Lookup: Checklist item: Kb tested on cloned human κ opioid receptor (KOR) (Homo sapiens, UniProt P41145), entry CC(C)[C@@H](CN1CCC(C)(c2cccnc2)CC1)NC(=O)[C@H]1Cc2ccc(O)cc2CN1 [Compound 3b] , value?
Found: 0.18

Lookup: Fill in the recorded Kb for this compound, with cloned human κ opioid receptor (KOR) (Homo sapiens, UniProt P41145) as test system: CC(C)[C@@H](CN1CCC(c2ccncc2)CC1)NC(=O)[C@H]1Cc2ccc(O)cc2CN1 [Compound 4a]
Found: 0.51
